TEST_METHOD_NOTES: solubility of terbinafine HCl in solvents
Assay type: physicochemical
ASSAY_CONDITIONS: aqueous buffer, thermodynamic from solid; phosphate-buffered saline (PBS 1×, starting pH 7.4), final pH 4.2
Protocol: With 0.1% Tween-80 in water, the solubility of terbinafine HCl in terbinafine HCl-PEG 3350 blend (75/25, W/W) was 4 mg/mL. […] The final pH was 3.0. When DMSO is used as the solvent, the solubility of terbinafine HCl was close to 100 mg/mL. […] The solution was made by weighing 100 mg of terbinafine HCl powder in a glass vial and then adding 1 ml of DMSO solvent. The glass vial was sealed and vortexed for 5 minutes with a mini vortexor. The resulting solution was clear.
Structures can show the parent of a compound that is named as a salt.
PROPERTY_MEASURED: solubility (mg/mL)
Provide only the numeric value, understood in mg/mL.

Prompt: Requested read-out: solubility. Entry: CN(C/C=C/C#CC(C)(C)C)Cc1cccc2ccccc12 [terbinafine HCl]
Response: 0.78
